# recordedConditions: in acetone, 308.15 K
measure: solubility (mole fraction)
Respond using a number only.

Prompt: Fill in: solubility (mole fraction) of COC(=O)Nc1nc2ccc(Sc3ccccc3)cc2[nH]1 is ___
Completion: 0.00026

----------
# recordedConditions: in acetonitrile, 283.15 K
measure: solubility (mole fraction)
Respond using a number only.

Prompt: Fill in: solubility (mole fraction) of COC(=O)Nc1nc2ccc(Sc3ccccc3)cc2[nH]1 is ___
Completion: 1.79e-05

----------
# recordedConditions: in ethyl acetate, 288.15 K
measure: solubility (mole fraction)
Respond using a number only.

Prompt: Fill in: solubility (mole fraction) of COC(=O)Nc1nc2ccc(Sc3ccccc3)cc2[nH]1 is ___
Completion: 0.000415

----------
# recordedConditions: in n-butanol, 273.15 K
measure: solubility (mole fraction)

Prompt: Fill in: solubility (mole fraction) of COC(=O)Nc1nc2ccc(Sc3ccccc3)cc2[nH]1 is ___
Completion: 7.43e-05

----------
# recordedConditions: in n-propanol, 293.15 K
measure: solubility (mole fraction)
Respond using a number only.

Prompt: Fill in: solubility (mole fraction) of COC(=O)Nc1nc2ccc(Sc3ccccc3)cc2[nH]1 is ___
Completion: 8.97e-05

----------
# recordedConditions: in n-butanol, 308.15 K
measure: solubility (mole fraction)
Respond using a number only.

Prompt: Fill in: solubility (mole fraction) of COC(=O)Nc1nc2ccc(Sc3ccccc3)cc2[nH]1 is ___
Completion: 0.000132

----------
# recordedConditions: in acetone, 288.15 K
measure: solubility (mole fraction)
Respond using a number only.

Prompt: Fill in: solubility (mole fraction) of COC(=O)Nc1nc2ccc(Sc3ccccc3)cc2[nH]1 is ___
Completion: 0.000194

----------
# recordedConditions: in 1,4-dioxane, 303.15 K
measure: solubility (mole fraction)

Prompt: Fill in: solubility (mole fraction) of COC(=O)Nc1nc2ccc(Sc3ccccc3)cc2[nH]1 is ___
Completion: 0.00166

----------
# recordedConditions: in ethanol, 298.15 K
measure: solubility (mole fraction)
Respond using a number only.

Prompt: Fill in: solubility (mole fraction) of COC(=O)Nc1nc2ccc(Sc3ccccc3)cc2[nH]1 is ___
Completion: 6.41e-05

----------
# recordedConditions: in ethanol, 308.15 K
measure: solubility (mole fraction)

Prompt: Fill in: solubility (mole fraction) of COC(=O)Nc1nc2ccc(Sc3ccccc3)cc2[nH]1 is ___
Completion: 7.62e-05

----------
# recordedConditions: in isopropanol, 278.15 K
measure: solubility (mole fraction)
Respond using a number only.

Prompt: Fill in: solubility (mole fraction) of COC(=O)Nc1nc2ccc(Sc3ccccc3)cc2[nH]1 is ___
Completion: 2.39e-05

----------
# recordedConditions: in n-butanol, 288.15 K
measure: solubility (mole fraction)
Respond using a number only.

Prompt: Fill in: solubility (mole fraction) of COC(=O)Nc1nc2ccc(Sc3ccccc3)cc2[nH]1 is ___
Completion: 9.47e-05

----------
# recordedConditions: in n-butanol, 298.15 K
measure: solubility (mole fraction)

Prompt: Fill in: solubility (mole fraction) of COC(=O)Nc1nc2ccc(Sc3ccccc3)cc2[nH]1 is ___
Completion: 0.000111
